measurement_description: Cytotoxicity against human SH-SY5Y cells assessed as cell viability at 1 uM after 48 hrs by MTT assay
Assay type: cell-based
protocol_conditions: read-out: Activity
measurement_type: viability at 48 h, 1 µM (%)
Respond numerically; units are % and should not be typed.

1. O=C1C(=Cc2ccc(N3CCN(C(=O)c4ccco4)CC3)cc2)C(=O)c2ccccc21: 98.1

With those in mind, consider the next compound.
Item `O=C1C(=Cc2ccc(N3CCN(c4ncccn4)CC3)cc2)C(=O)c2ccccc21` has what recorded viability at 48 h, 1 µM? 98.1

* * *

Some compounds, each annotated with its measured Ratio IC50.
measurement_description: Selectivity index, ratio of IC50 for equine serum BuChE to IC50 for electric eel AChE
// return a plain number; no unit text

Take a look at these entries with their results.
1) O=C1C(=Cc2ccc(N3CCN(c4ccc(F)cc4)CC3)cc2)C(=O)c2ccccc21: 29.6
2) O=C1C(=Cc2ccc(N3CCN(c4ccc(Cl)cc4)CC3)cc2)C(=O)c2ccccc21: 4.8

With those in mind, consider the next compound.
Item `O=C1C(=Cc2ccc(N3CCN(c4ccccn4)CC3)cc2)C(=O)c2ccccc21` has what recorded Ratio IC50? 7.8
